Source: patent US20240173440A1

Test system: HT-1080.hFAP and HT-1080.wt xenografts
PROTOCOL DETAILS: Quantitative biodistribution in HT-1080.hFAP and HT-1080.wt xenografted mice
Type: in vivo
CONDITIONS USED: 4 hours p.i.
Experimental: The tumors were allowed to grow to an average volume of 100-200 mm3. Biodistribution Studies: The xenografted mice were randomized (n=5 per group) and injected intravenously via the tail vein with the ^61Cu-labeled radioligands (100 μL, […], 0.8-1MBq). Mice were euthanized 1h and 4h pi. by CO2 asphyxiation. Organs of interest and blood were collected, rinsed of excess blood, blotted dry, weighed, and counted in a 7-counter. […]
# Biodistribution Liver annotations
Express the result in % I.A./g but write the number alone.

Examples from the recorded data:
N#C[C@@H]1CC(F)(F)CN1C(=O)CNC(=O)c1ccnc2ccc(NC(=O)CCC(=O)NCCNC(=O)CC[C@H](C(=O)O)N3CCN4CCN(CC3)CC(=O)[O][61Cu][O]C(=O)C4)cc12 [[^61Cu]Cu-NODAGA-F1]; 1.0
CN(C(=O)CCC(=O)NCCNC(=O)CC[C@H](C(=O)O)N1CCN2CCN(CC1)CC(=O)[O][61Cu][O]C(=O)C2)c1ccc2nccc(C(=O)NCC(=O)N3CC(F)(F)C[C@H]3C#N)c2c1 [[^61Cu]Cu-NODAGA-F2]; 0.6
N#C[C@@H]1CC(F)(F)CN1C(=O)CNC(=O)c1ccnc2ccc(NC(=O)CCC(=O)N3CCN(C(=O)CC[C@H](C(=O)O)N4CCN5CCN(CC4)CC(=O)[O][61Cu][O]C(=O)C5)CC3)cc12 [[^61Cu]Cu-NODAGA-F3]; 0.7

Turning to the following compound.
QUERY: For the compound shown here, CN(C(=O)CCC(=O)N1CCN(C(=O)CC[C@H](C(=O)O)N2CCN3CCN(CC2)CC(=O)[O][61Cu][O]C(=O)C3)CC1)c1ccc2nccc(C(=O)NCC(=O)N3CC(F)(F)C[C@H]3C#N)c2c1 [[^61Cu]Cu-NODAGA-F4] , give the reported Biodistribution Liver.
RESULT: 0.4

----------
PROTOCOL DETAILS: Pharmacokinetics (biodistribution 1-24 h) in non-tumor bearing mice
Format: in vivo
CONDITIONS USED: female, BALB/c, mouse, muscle, 200 umol, total radioactivity; 4 hours after injection, ^61Cu; read-out: Biodistribution Muscles
EXPERIMENTAL READOUT: tissue uptake at 4 h (%ID/g)
Express the result in %ID/g but write the number alone.

QUERY: For the compound shown here, C[C@@H](O)[C@@H]1NC(=O)[C@H](CCCCN)NC(=O)[C@@H](Cc2c[nH]c3ccccc23)NC(=O)[C@H](Cc2ccc(O)cc2)NC(=O)[C@@H](NC(=O)[C@@H](Cc2ccccc2)NC(=O)CCC(C(=O)O)N2CCN(CC(=O)O)CCN(CC(=O)O)CC2)CSSC[C@@H](C(=O)N[C@H](CO)[C@@H](C)O)NC1=O (single isomer, unassigned) [[^61/^64Cu]Cu-NODAGA-TOC, metal not drawn] , give the reported tissue uptake at 4 h.
RESULT: 0.07

----------
PROTOCOL DETAILS: Pharmacokinetics (biodistribution 1-24 h) in non-tumor bearing mice
Type: in vivo
CONDITIONS USED: female, BALB/c, mouse, femur, 200 umol, total radioactivity; 1 hour after injection, ^61Cu; read-out: Biodistribution Femur
EXPERIMENTAL READOUT: tissue uptake at 1 h

QUERY: For the compound shown here, C[C@@H](O)[C@@H]1NC(=O)[C@H](CCCCN)NC(=O)[C@@H](Cc2c[nH]c3ccccc23)NC(=O)[C@H](Cc2ccc(O)cc2)NC(=O)[C@@H](NC(=O)[C@@H](Cc2ccccc2)NC(=O)CCC(C(=O)O)N2CCN(CC(=O)O)CCN(CC(=O)O)CC2)CSSC[C@@H](C(=O)N[C@H](CO)[C@@H](C)O)NC1=O (single isomer, unassigned) [[^61/^64Cu]Cu-NODAGA-TOC, metal not drawn] , give the reported tissue uptake at 1 h.
RESULT: 0.45 %ID/g

----------
PROTOCOL DETAILS: Pharmacokinetics (biodistribution 1-24 h) in non-tumor bearing mice
Assay type: in vivo
CONDITIONS USED: female, BALB/c, mouse, blood, 200 umol, total radioactivity; 12 hours after injection, ^64Cu; read-out: Biodistribution Blood
EXPERIMENTAL READOUT: tissue uptake at 12 h (%ID/g)
Express the result in %ID/g but write the number alone.

QUERY: For the compound shown here, C[C@@H](O)[C@@H]1NC(=O)[C@H](CCCCN)NC(=O)[C@@H](Cc2c[nH]c3ccccc23)NC(=O)[C@H](Cc2ccc(O)cc2)NC(=O)[C@@H](NC(=O)[C@@H](Cc2ccccc2)NC(=O)CCC(C(=O)O)N2CCN(CC(=O)O)CCN(CC(=O)O)CC2)CSSC[C@@H](C(=O)N[C@H](CO)[C@@H](C)O)NC1=O (single isomer, unassigned) [[^61/^64Cu]Cu-NODAGA-TOC, metal not drawn] , give the reported tissue uptake at 12 h.
RESULT: 0.04

----------
System: HT-1080.hFAP and HT-1080.wt xenografts
PROTOCOL DETAILS: Quantitative biodistribution in HT-1080.hFAP and HT-1080.wt xenografted mice
Type: in vivo
CONDITIONS USED: FAP-positive tumor, 4 hours p.i.
# Biodistribution HT-1080.hFAP annotations
Express the result in % I.A./g but write the number alone.

Examples from the recorded data:
CN(C(=O)CCC(=O)N1CCN(C(=O)CC[C@H](C(=O)O)N2CCN3CCN(CC2)CC(=O)[O][61Cu][O]C(=O)C3)CC1)c1ccc2nccc(C(=O)NCC(=O)N3CC(F)(F)C[C@H]3C#N)c2c1 [[^61Cu]Cu-NODAGA-F4]; 3.0
CN(C(=O)CCC(=O)NCCNC(=O)CC[C@H](C(=O)O)N1CCN2CCN(CC1)CC(=O)[O][61Cu][O]C(=O)C2)c1ccc2nccc(C(=O)NCC(=O)N3CC(F)(F)C[C@H]3C#N)c2c1 [[^61Cu]Cu-NODAGA-F2]; 4.0
N#C[C@@H]1CC(F)(F)CN1C(=O)CNC(=O)c1ccnc2ccc(NC(=O)CCC(=O)NCCNC(=O)CC[C@H](C(=O)O)N3CCN4CCN(CC3)CC(=O)[O][61Cu][O]C(=O)C4)cc12 [[^61Cu]Cu-NODAGA-F1]; 7.1

QUERY: For the compound shown here, N#C[C@@H]1CC(F)(F)CN1C(=O)CNC(=O)c1ccnc2ccc(NC(=O)CCC(=O)N3CCN(C(=O)CC[C@H](C(=O)O)N4CCN5CCN(CC4)CC(=O)[O][61Cu][O]C(=O)C5)CC3)cc12 [[^61Cu]Cu-NODAGA-F3] , give the reported Biodistribution HT-1080.hFAP.
RESULT: 6.4

----------
Tested on: HT-1080.hFAP and HT-1080.wt xenografts
PROTOCOL DETAILS: Quantitative biodistribution in HT-1080.hFAP and HT-1080.wt xenografted mice
Type: in vivo
CONDITIONS USED: 1 h p.i., HT-1080.hFAP and HT-1080.wt xenografts
EXPERIMENTAL READOUT: Biodistribution Intestine

N#C[C@@H]1CC(F)(F)CN1C(=O)CNC(=O)c1ccnc2ccc(NC(=O)CCC(=O)NCCNC(=O)CC[C@H](C(=O)O)N3CCN4CCN(CC3)CC(=O)[O][61Cu][O]C(=O)C4)cc12 [[^61Cu]Cu-NODAGA-F1]; 1.7 ± 0.4 % IA/g

QUERY: For the molecule shown here, N#C[C@@H]1CC(F)(F)CN1C(=O)CNC(=O)c1ccnc2ccc(NC(=O)CCC(=O)N3CCN(C(=O)CC[C@H](C(=O)O)N4CCN5CCN(CC4)CC(=O)[O][61Cu][O]C(=O)C5)CC3)cc12 [[^61Cu]Cu-NODAGA-F3] , give the reported Biodistribution Intestine.
RESULT: 0.8 ± 0.2 % IA/g

QUERY: For the molecule shown here, CN(CCCN1CCN(C(=O)CCC(C(=O)O)N2CCN3CCN(CC2)CC(=O)[O][61Cu][O]C(=O)C3)CC1)c1ccc2nccc(C(=O)NCC(=O)N3CC(F)(F)C[C@H]3C#N)c2c1 (some centres unmarked) [[^61Cu]Cu-NODAGA-FAPI-46] , give the reported Biodistribution Intestine.
RESULT: 1.0 ± 0.4 % IA/g

QUERY: For the molecule shown here, CN(C(=O)CCC(=O)NCCNC(=O)CC[C@H](C(=O)O)N1CCN2CCN(CC1)CC(=O)[O][61Cu][O]C(=O)C2)c1ccc2nccc(C(=O)NCC(=O)N3CC(F)(F)C[C@H]3C#N)c2c1 [[^61Cu]Cu-NODAGA-F2] , give the reported Biodistribution Intestine.
RESULT: 0.5 ± 0.1 % IA/g

QUERY: For the molecule shown here, CN(C(=O)CCC(=O)N1CCN(C(=O)CC[C@H](C(=O)O)N2CCN3CCN(CC2)CC(=O)[O][61Cu][O]C(=O)C3)CC1)c1ccc2nccc(C(=O)NCC(=O)N3CC(F)(F)C[C@H]3C#N)c2c1 [[^61Cu]Cu-NODAGA-F4] , give the reported Biodistribution Intestine.
RESULT: 0.5 ± 0.2 % IA/g
